system: Zika virus NS2B-NS3 protease (unlinked complex); assay: Primary screen GU Rhodamine qHTS for Zika virus inhibitors: Unlinked NS2B-NS3 protease assay (AID 1347159); details: Recombinant ZIKV NS2B-NS3 protease, Rhodamine110 substrate fluorescence; series mostly up to 107 µM; note: nearly all actives have a fitted effect of over 60% in size
Records with an inconclusive call do not appear. Active and inactive are the calls of the source. Calls come from the whole dose curve; as a rule, active = well fitted inhibition curve with a large enough effect; inconclusive = small, poorly fitted or top-dose-only effect; inactive = no such curve, though single readings can be large or run the other way.
Outcome (select one): active, inactive

C=CC(=O)N1CCCC(n2nc(-c3ccc(Oc4ccccc4)cc3)c3c(N)ncnc32)C1 (centres undefined); inactive
NC(=O)c1ccccc1Nc1ccnc(Nc2cccc(O)c2)n1; inactive
CC[C@@H](C)Nc1cc(C(=O)NC2CC3CC[C@@H](C2)N3c2ccc(C(=O)C3CC3)cn2)c(C)cc1C(N)=O (some centres undefined); inactive
COc1ccc(-c2ccccc2)cc1NS(=O)(=O)c1cc(Cl)cc(Cl)c1O; active
COc1cc(CCc2ccc(OCC=C(C)C)cc2)cc(OC)c1OC; inactive

Enquiry: Field: outcome | Entry: FC(F)(F)c1ccc(/C=C/c2nc(COc3ccc(CCCCn4ccnn4)cc3)co2)cc1
Return: inactive

Enquiry: Now this one: C=CCCN1CCC2(CC1)CN(C(=O)c1c(F)cccc1F)c1ccc(Cl)cc12
Return: inactive

Enquiry: Now this one: Cc1cc2occ(CN(C)CCN(C)Cc3cn(-c4cccc(C(F)(F)F)c4)c4ccccc34)c(=O)c2cc1C
Return: inactive

Enquiry: Now this one: C=C[C@@]1(C)CCC2C(=CCC3[C@]2(C)CCC[C@@]3(C)C(=O)O)C1 (some centres undefined)
Return: active

---

target: Glutathione peroxidase 1 (Homo sapiens); experiment: Primary qHTS Assay for Inhibitors of Recombinant Selenoprotein Glutathione Peroxidase 1 (GPX1) (AID 1845191); settings: recombinant GPX1, GR-coupled NADPH fluorescence, 15 min; series mostly up to 48.8 µM; note: nearly all actives have a fitted effect of over 65% in size; note: potency is the fitted concentration of half-maximal effect
Records with an inconclusive call do not appear. Calls of active or inactive are those of the source. Calls come from the whole dose curve; as a rule, active = well fitted inhibition curve with a large enough effect; inconclusive = small, poorly fitted or top-dose-only effect; inactive = flat fitted curve, though single readings scatter.
value kind: Potency

Look over these answered cases.
O=C(NCc1ccccc1-c1ccccc1C(=O)NCCc1ccccn1)OCc1ccccc1; inactive
CC(C)NCCCn1c(Sc2cc3c(cc2I)OCO3)nc2c(N)ncnc21; inactive
CN(C)[C@@H]1CCc2[nH]c3ccc(NC(=O)c4ccc(F)cc4)cc3c2C1; inactive
COc1ccc(-c2ccc3c(N4CCOCC4C)nc(N4CCOCC4C)nc3n2)cc1CO (stereo not given); 18 µM (active)

Okay, next one:
Enquiry: API: value(readout= Potency, system= Glutathione peroxidase 1 (Homo sapiens), query= CN1CCN(Cc2ccc(NC(=O)Cc3ccc(Oc4cc(NC(=O)C5CC5)ncn4)cc3)cc2C(F)(F)F)CC1 )
Return: inactive

---

tested on: SKOV3; assay: Primary qHTS to identify gynecologic anti-cancer compounds using libraries of approved drugs and bioactive compounds (AID 1345084); settings: Gynecologic cancer cell panel viability, ATPlite luminescence, 48 h; series mostly up to 57.5 µM; note: nearly all actives have a fitted effect of over 55% in size
Results filed as inconclusive are left out. Active and inactive are the calls of the source. Calls follow the shape of the dose curve; as a rule, active = well fitted cell-killing curve with a large enough effect; inconclusive = small, poorly fitted or top-dose-only effect, or effect the other way; inactive = flat fitted curve, though single readings scatter.
Outcome (select one): YES = active, NO = inactive

Worked set:
Cn1ncc(Cl)c1-c1cc(C(=O)N[C@H](CN)Cc2cccc(F)c2)sc1Cl; YES
C=C1CCCC2(C)CCC(C(C)(C)OC3OC(C)C(O)C(O)C3OC(=O)/C(C)=C\C)CC12 (centres undefined); NO

Enquiry: Field: outcome | Entry: CC(C)C[C@H](C(=O)O)c1cc(-c2ccc(C(F)(F)F)cc2)cc(-c2ccc(C(F)(F)F)cc2)c1
Return: NO

Enquiry: Now this one: CC(C)NCCCn1c(Sc2cc3c(cc2I)OCO3)nc2c(N)ncnc21
Return: YES

Enquiry: Now this one: CCCc1cc(C)n(C)c(=O)c1CN(C)C(=O)c1cc(-c2ccc(N3CCN(C(C)C)CC3)nc2)cc2c1cnn2C(C)C
Return: NO

Enquiry: Now this one: C=C1C(=O)O[C@@H]2/C=C(\CO)CC/C=C(\CO)[C@H](OC(C)=O)C(OC(=O)C(C)CC)C12 (some centres undefined)
Return: NO

---

Test: Primary qHTS for inhibitors of nuclear receptor binding SET domain protein 2 (NSD2) in an RCH-ACV wild type WT cells (2C) (AID 1645877); note: potency is the fitted concentration of half-maximal effect; nearly all actives have a fitted effect of over 70% in size
Details: RCH-ACV NSD2 WT (2C) viability, CellTiter-Glo, 72 h; series mostly up to 44.9 µM
Excerpt: Assay Provider: Jonathan D. Licht, MD University of Florida College of Medicine, Gainesville, FL Mutations in epigenetic regulators are common in relapsed pediatric acute lymphoblastic leukemia (ALL). Here, we uncovered the mechanism underlying the relapse of ALL driven by an activating mutation of the NSD2 histone methyltransferase (p.E1099K). […] Correction of this mutation restored glucocorticoid sensitivity. […]
Results filed as inconclusive are left out. Active and inactive are the calls of the source. Calls follow the shape of the dose curve; as a rule, active = well fitted inhibition curve with a large enough effect; inconclusive = small, poorly fitted or top-dose-only effect; inactive = no such curve, though single readings can be large or run the other way.
Outcome (select one): t = active, f = inactive

Enquiry: Field: outcome | Entry: C[C@H](Oc1cc(-c2cnn(C3CCNCC3)c2)cnc1N)c1c(Cl)ccc(F)c1Cl
Return: t

---

tested on: PA-1; test: Primary qHTS to identify gynecologic anti-cancer compounds using libraries of approved drugs and bioactive compounds (AID 1345084); conditions: Gynecologic cancer cell panel viability, ATPlite luminescence, 48 h; series mostly up to 57.5 µM; note: nearly all actives have a fitted effect of over 55% in size; note: potency is the fitted concentration of half-maximal effect
Records with an inconclusive call do not appear. Active and inactive are the calls of the source. Calls come from the whole dose curve; as a rule, active = well fitted cell-killing curve with a large enough effect; inconclusive = small, poorly fitted or top-dose-only effect, or effect the other way; inactive = flat fitted curve, though single readings scatter.
value kind: Potency

Look over these answered cases.
C#CCCCn1cc(-c2cccc3c2N[C@H](C)CC(=O)N3)cn1; 7.08 µM (active)
Fc1ccc(-c2cncc(CN3CCN(c4cccc5c4OCCO5)CC3)c2)cc1; inactive
CC#CC(=O)Nc1ccc2ncnc(Nc3cccc(Br)c3)c2c1; 7.94 µM (active)
CC(=O)O[C@@H]1CC2C(/C=C(\C)C(=O)[C@@]3(O)C[C@@H](C)[C@H](OC(=O)c4ccccc4)C3/C=C/1C)C2(C)C (some centres undefined); inactive
O=S(=O)(Nc1cc(Cl)c(Oc2cnc3ccccc3c2)c(Cl)c1)c1ccc(Cl)cc1Cl; inactive
C=CC(C)(O)CC[C@@H]1[C@@]2(C)CCCC(C)(C)C2CC[C@@]1(C)O (some centres undefined); inactive
COc1ccccc1N1CCN(CC(C(=O)NC(C)(C)C)c2ccccc2)CC1 (centres undefined); inactive
CC(C)C(C)C(O)C1CC23CC(=O)C4(O)C(=C2CCC3C1C)C=CC1(O)CC(O)CCC14C (centres undefined); inactive

Okay, next one:
Enquiry: Data request, read-out Potency, for C=C1C(=O)O[C@@H]2C(OC(=O)/C(C)=C\C)/C(C)=C\C(=O)/C=C(\C)C[C@H](O)[C@@H]12 (some centres undefined)
Return: 10 µM (active)

---

molecular target: Rap guanine nucleotide exchange factor 4 (Homo sapiens) (UniProt Q8WZA2); assay: Confirmatory qHTS for antagonist of cAMP-regulated guanine nucleotide exchange factor 4 (EPAC2) (AID 1645885); details: EPAC2 Rap1B-BODIPY-GDP exchange fluorescence, biochemical; series mostly up to 114 µM; note: nearly all actives have a fitted effect of over 25% in size
Sequence (Q8WZA2 whole entry, looked up): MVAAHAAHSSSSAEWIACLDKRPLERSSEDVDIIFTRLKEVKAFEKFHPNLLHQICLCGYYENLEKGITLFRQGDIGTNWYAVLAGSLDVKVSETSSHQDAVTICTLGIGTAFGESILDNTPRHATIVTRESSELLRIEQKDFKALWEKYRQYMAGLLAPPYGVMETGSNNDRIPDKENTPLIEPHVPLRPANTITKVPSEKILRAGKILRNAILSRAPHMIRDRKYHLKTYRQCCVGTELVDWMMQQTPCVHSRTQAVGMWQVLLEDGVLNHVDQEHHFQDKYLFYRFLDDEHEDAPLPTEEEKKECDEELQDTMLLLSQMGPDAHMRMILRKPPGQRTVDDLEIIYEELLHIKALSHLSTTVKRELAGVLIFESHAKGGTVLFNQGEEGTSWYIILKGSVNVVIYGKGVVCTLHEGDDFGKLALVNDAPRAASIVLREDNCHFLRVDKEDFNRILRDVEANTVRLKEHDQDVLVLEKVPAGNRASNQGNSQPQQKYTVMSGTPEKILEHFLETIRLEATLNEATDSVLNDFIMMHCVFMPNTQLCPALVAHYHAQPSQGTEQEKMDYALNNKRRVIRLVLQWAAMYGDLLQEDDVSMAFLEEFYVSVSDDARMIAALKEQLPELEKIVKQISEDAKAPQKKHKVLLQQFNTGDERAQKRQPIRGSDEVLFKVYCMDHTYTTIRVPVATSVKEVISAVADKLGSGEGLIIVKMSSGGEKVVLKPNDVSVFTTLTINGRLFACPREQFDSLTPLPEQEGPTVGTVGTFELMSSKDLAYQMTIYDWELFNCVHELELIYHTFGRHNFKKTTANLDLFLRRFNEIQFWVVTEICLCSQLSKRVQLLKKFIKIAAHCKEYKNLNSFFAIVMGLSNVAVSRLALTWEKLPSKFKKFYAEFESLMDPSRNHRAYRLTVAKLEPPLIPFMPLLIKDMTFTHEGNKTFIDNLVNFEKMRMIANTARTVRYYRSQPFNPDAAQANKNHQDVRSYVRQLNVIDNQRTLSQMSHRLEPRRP
Results filed as inconclusive are left out. Calls of active or inactive are those of the source. Calls come from the whole dose curve; as a rule, active = well fitted inhibition curve with a large enough effect; inconclusive = small, poorly fitted or top-dose-only effect; inactive = no such curve, though single readings can be large or run the other way.
Outcome (select one): Y (active), N (inactive)

C[C@]12CC[C@@H]3c4ccc(OS(=O)(=O)O)cc4CC[C@H]3[C@@H]1CCC2=O; N
O=C(O)c1cc2ccccc2c(Cc2c(O)c(C(=O)O)cc3ccccc23)c1O; N
CC(=O)S[C@@H]1CC2=CC(=O)CC[C@]2(C)[C@H]2CC[C@@]3(C)[C@@H](CC[C@@]34CCC(=O)O4)[C@H]12; N

Enquiry: Field: outcome | Entry: O=C(O)CSc1cc(NS(=O)(=O)c2ccc(Br)cc2)c2ccccc2c1O
Return: Y

---

Please go through the items and note down their Z-AUC.
experiment: qHTS drug screen for cell cycle checkpoint inhibitors in PARPi-resistant BRCA-mutant ovarian cancer cell lines. (AID 1963452); settings: PEO1/OlaR viability, CellTiter-Glo luminescence, 96 h; measured here: PEO1 parental Z-AUC; stronger effect = lower value
One number for each entry.

Look over these answered cases.
Cn1ncc(Cl)c1-c1cc(C(=O)NC(CN)Cc2ccc(F)c(F)c2)oc1Cl (stereo not given); 0.319
CC(C)NC(=O)N1CC[C@H](N=C2Nc3cc(F)ccc3N(CC(F)F)c3ccc(Cl)cc32)C1; -0.755
N#Cc1ccc(COC[C@H]2O[C@@H](n3c(NCc4ccc(Cl)c(Cl)c4)nc4c(N)ncnc43)[C@H](O)[C@@H]2O)cc1; -0.265
COc1cc(S(C)(=O)=O)ccc1Nc1nc2ccc(-c3ccc(NC(=O)[C@H](C)c4ccc(F)cc4)cc3)cn2n1; 0.0908

Okay, next one:
Enquiry: Data request, read-out Z-AUC, for CN1C(=O)c2sccc2N(C)c2nc(Nc3ccc(S(N)(=O)=O)cc3)ncc21
Return: -0.96

---

test: Primary qHTS for inhibitors of nuclear receptor binding SET domain protein 2 (NSD2) in an isogenic RCH-ACV NSD2 p.E1099K mutant (9B) (AID 1645876); conditions: RCH-ACV (leukaemia line) NSD2 E1099K (9B) viability, CellTiter-Glo, 72 h; series mostly up to 44.9 µM; note: nearly all actives have a fitted effect of over 70% in size
Inconclusive results are not listed. Calls of active or inactive are those of the source. Calls come from the whole dose curve; as a rule, active = well fitted inhibition curve with a large enough effect; inconclusive = small, poorly fitted or top-dose-only effect; inactive = flat fitted curve, though single readings scatter.
Outcome (select one): active, inactive

CCC1C(=O)N(C)c2cnc(Nc3ccc(C(=O)NC4CCN(C)CC4)cc3OC)nc2N1C1CCCC1 (configuration not stated); active
O=C(O)C1=CO[C@@H](O[C@@H]2O[C@H](CO)[C@@H](O)[C@H](O)[C@H]2O)[C@@H]2C(CO)=CC[C@H]12; inactive
COC(=O)N1CC2(CC2)C[C@H](C(=O)NO)[C@H]1C(=O)N1CCN(c2ccccc2)CC1; inactive
C[C@@H]1C[C@H]2O[C@@]3(O[C@@H]2C(C)(C)O)C(O)[C@@]2(C)C4CCC5C(C)(C)[C@@H](O[C@H]6OC[C@H](O)[C@@H](O)[C@@H]6O)CC[C@@]56C[C@@]46CC[C@]2(C)C13 (some centres not stated); inactive
COc1c(CCC(=O)O)cccc1O[C@@H]1O[C@H](CO)[C@@H](O)[C@H](O)[C@H]1O; inactive

Enquiry: Field: outcome | Entry: CCCCCCOC(=O)/N=C(\N)c1ccc(NCc2nc3cc(C(=O)N(CCC(=O)OCC)c4ccccn4)ccc3n2C)cc1
Return: active

Enquiry: Now this one: NC(=O)c1cnc(N[C@@H]2CCCC[C@@H]2N)nc1Nc1cccc(-n2nccn2)c1
Return: active
